# assay_overview: Terminal half life in Beagle dog at 1 mg/kg, iv measured over 24 hrs by LC/MS/MS analysis
# Assay type: ADME, organism-based, Canis lupus familiaris
# condition_info: in vivo, read-out: beta t1/2 (converted)
property_name: half-life (h)
Could you give me the number in h? Just the number is fine.

What value of half-life has been recorded for this entry: "N#Cc1c(N)nc(N)nc1N[C@H](c1nc2c(F)ccc(Cl)c2c(=O)n1-c1cccnc1)C1CC1"
2.01

----------
# assay_overview: Clearance in dog at 1 mg/kg, iv
# Assay type: ADME, organism-based, Canis lupus familiaris
# condition_info: in vivo
property_name: clearance (mL/min/kg)
Quick reminder: number only, in mL/min/kg, skip the unit.

C[C@H](Nc1nc(N)nc(N)c1C#N)c1nc2c(F)ccc(Cl)c2c(=O)n1-c1cncc(F)c1 5.17
CC[C@H](Nc1nc(N)nc(N)c1C#N)c1nc2c(F)ccc(Cl)c2c(=O)n1-c1cccnc1 2.17

// lookup clearance for "C[C@H](Nc1nc(N)nc(N)c1C#N)c1nc2cccc(Cl)c2c(=O)n1-c1cccnc1"
3.33

Please give the result for "C[C@H](Nc1nc(N)nc(N)c1C#N)c1nc2c(F)ccc(Cl)c2c(=O)n1-c1cccnc1" too.
3.5

Same question, "N#Cc1c(N)nc(N)nc1N[C@H](c1nc2c(F)ccc(Cl)c2c(=O)n1-c1cccnc1)C1CC1" this time
9
